Attribution: PubChem BioAssay (NCI)

test system: CCRF-CEM leukemia; assay: NCI tumour cell line growth inhibition, 48 h
Reported TGI is given for each of the following compounds.
Test readout: TGI

>>> value_observed("COc1cc(S(=O)(=O)Nc2ccc(-c3csc(N4C(=O)C(Cl)C4c4ccccc4)n3)cc2)ccc1Cl (stereo not drawn)")
"> 100 µM"
>>> value_observed("Cc1ccc(C(O)(c2ccc(C)cc2)c2ccccn2)cc1")
"> 100 µM"
>>> value_observed("Fc1cccc(Cl)c1C1SCc2nc3cc4ccccc4cc3n21 (stereo not drawn)")
"> 100 µM"
>>> value_observed("Cc1ccc(/C=C2\\CCCC(CN(C)C)C2=O)cc1 (stereo not drawn)")
"> 100 µM"
>>> value_observed("O=C1Nc2ccccc2/C1=C\\c1nc(C2CCN(S(=O)(=O)c3ccc(F)cc3)CC2)n2ccccc12")
"> 100 µM"
>>> value_observed("NC(=O)/C=c1/c2ccccc2n2nc3ccccc3c12")
"> 100 µM"
>>> value_observed("[O-][N+]1=NC(c2ccccc2)=C1c1ccccc1")
"> 50 µM"
>>> value_observed("C[C@]12CC[C@H]3[C@@H](C[C@@H]4SC(Nc5ccccc5)=N[C@@]45CC(O)CC[C@]35C)[C@@H]1CCC2O (stereo partly drawn)")
"27.1 µM"
>>> value_observed("Cc1ccc(C2=C(c3ccccc3)C(c3ccccc3)Oc3ccc(C)cc32)cc1 (stereo not drawn)")
"39 µM"
>>> value_observed("O=[N+]([O-])c1cc(Cl)ccc1OCc1ccccc1")
"> 100 µM"
>>> value_observed("COC(=O)C(CBr)CBr")
"1.83 µM"
>>> value_observed("COC(=O)c1ccccc1/C=C1\\Cc2c(C)cc(C)cc2C1=O")
"> 100 µM"
>>> value_observed("NCCSCc1ccccc1Cl")
"78.8 µM"
>>> value_observed("Cc1cc(C(=O)O)c(C)n1-c1cccc(C(=O)O)c1")
"> 100 µM"
>>> value_observed("O=C(O)C1(Cc2ccc3c(c2)CCC3)Cc2ccccc2C1")
"> 100 µM"
>>> value_observed("C=C1C2CC(OC(C)=O)C3(C)C(c4ccoc4)OC(=O)[C@@H](O)[C@]13OC1C[C@H](OC(C)=O)C(C)(C)[C@H](CC(=O)OC)[C@]12C (stereo partly drawn)")
"> 100 µM"
>>> value_observed("CCOC(=O)/C=C/[C@H](O)[C@@H](O)/C=C/C(=O)OCC")
"32.6 µM"
>>> value_observed("O=S1(=O)CCCS(=O)(=O)C(c2ccccc2)=C1c1ccccc1")
"> 100 µM"
>>> value_observed("CCOc1ccc(N=NS(=O)(=O)O)cc1")
"> 100 µM"
>>> value_observed("CCCCC(=O)N/N=C/c1c(O)ccc2ccccc12")
"1.28 µM"
>>> value_observed("O=[N+]([O-])/C(C(Cl)=C(Cl)Cl)=C(\\Nc1ccccc1)n1nnc2ccccc21")
"65.9 µM"
>>> value_observed("Cc1ccc(NC(=S)SCCC(=O)O)cc1")
"> 100 µM"
>>> value_observed("Oc1ccc(CCNCc2cc3c(cc2Br)OCO3)cc1")
"> 100 µM"
